Record form. Attribute: viability, T/C. Fill in for each entry.
Tested on: 616215-338-R-J1-PDC spheroids with HUVEC/MSC, viability;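 further: spheroids exposed to agents for seven days before the viability read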
Experiment: Anticancer human tumor 616215-338-R-J1-PDC patient-derived colon adenocarcinoma cell line growth inhibition [PI3K]
Conditions: second compound 0.0316 µM; first compound 0.00949 µM; hits give low values
Report the value in % with no unit label.

Req: Requested read-out: viability, T/C. Entry: Cn1cnc2c(F)c(Nc3ccc(Br)cc3Cl)c(C(=O)NOCCO)cc21 + COc1c(OCCCN2CCOCC2)ccc2c3n(c(=NC(=O)c4cnc(N)nc4)nc12)CCN3
Resp: 99.3

Req: Now the compound Cn1cnc2c(F)c(Nc3ccc(Br)cc3Cl)c(C(=O)NOCCO)cc21 + CC(Nc1ncnc2nc[nH]c12)c1cc2cccc(Cl)c2c(=O)n1-c1ccccc1
Resp: 94.3

Req: Please do the same for Cn1cnc2c(F)c(Nc3ccc(Br)cc3Cl)c(C(=O)NOCCO)cc21 + CC(Nc1ccc2c(c1)OCCn1cc(N3C(=O)OCC3C(F)F)nc1-2)C(N)=O as well.
Resp: 96.1

Req: Subsequent entry: Cn1cnc2c(F)c(Nc3ccc(Br)cc3Cl)c(C(=O)NOCCO)cc21 + Cc1nc(NC(=O)N2CCCC2C(N)=O)sc1-c1ccnc(C(C)(C)C(F)(F)F)c1
Resp: 107

Data provenance: PubChem BioAssay AID1963978
